# Assay text: Phase 1 Stage 1 clinical pharmacokinetics of SC ZA co-administered with rHuPH20
# Type: in vivo, human
# Condition info: human, serum, sc, ZA 5 mg SC + 24000 U rHuPH20; mean, n=3; read-out: MRT
Property measured: MRT (h)
Give bare numbers, in h.

INPUT: # query: MRT of entry "O=P(O)(O)C(O)(Cn1ccnc1)P(=O)(O)O"
OUTPUT: 12.5

====

# Assay text: Phase 1 Stage 1 clinical pharmacokinetics of SC ZA co-administered with rHuPH20
# Assay type: in vivo, human
# Condition info: human, serum, sc, […], AUC (0-48 h), Subj 32; ZA […] SC; inf 0.556 hr; PH20 24000 U
# Protocol: A pharmacokinetic study of zoledronic acid (ZA) co-administered with rHuPH20 in human subjects was conducted. […] Serum concentration of ZA was determined using a qualified LC-MS-MS assay after derivatization with diazomethane (Zhu, L S et al. (2006) Rapid Commun. […] The assay range was from 2.0 to 400 ng/mL with a lower limit of quantitation (LLOQ) at 2.0 ng/mL. […] Summary statistics (mean, standard deviation, and median) were calculated using JMP or Microsoft Excel.
Property measured: AUC(0-t) (ng·h/mL)
Give bare numbers, in ng·h/mL.

INPUT: I am curious: what AUC(0-t) value has been reported for "O=P(O)(O)C(O)(Cn1ccnc1)P(=O)(O)O" ?
OUTPUT: 277

====

# Assay text: Phase 1 Stage 1 clinical pharmacokinetics of SC ZA co-administered with rHuPH20
# Format: in vivo, human
# Condition info: human, serum, sc, serum; ZA 5 mg SC infusion + 24000 Units rHuPH20; 1 h post infusion; n=3; read-out: Median Conc.
Property measured: concentration at 1 h (ng/mL)
One number for each entry, in ng/mL.

INPUT: Given the entry "O=P(O)(O)C(O)(Cn1ccnc1)P(=O)(O)O" , report its measured concentration at 1 h.
OUTPUT: 116

====

# Assay text: Phase 1 Stage 1 clinical pharmacokinetics of SC ZA co-administered with rHuPH20
# Type: in vivo, human
# Condition info: human, serum, sc, 0.0608 mg/kg, Subj 68; ZA 0.0608 mg/kg SC; inf […]; PH20 2880 U; read-out: AUC (0-inf)
Property measured: AUC(0-inf) (ng·h/mL)
Give bare numbers, in ng·h/mL.

INPUT: Which measured AUC(0-inf) value corresponds to O=P(O)(O)C(O)(Cn1ccnc1)P(=O)(O)O [ZA] ?
OUTPUT: 630

====

# Assay text: Phase 1 Stage 1 clinical pharmacokinetics of SC ZA co-administered with rHuPH20
# Type: in vivo, human
# Condition info: human, serum, sc, ZA 0.5 mg SC + 24000 U rHuPH20; median, n=3; read-out: Vz/F
Property measured: Vd/F (L/kg)
Give bare numbers, in L/kg.

INPUT: Give its Vd/F value. Item: O=P(O)(O)C(O)(Cn1ccnc1)P(=O)(O)O [ZA]
OUTPUT: 0.428

====

# Assay text: Phase 1 Stage 1 clinical pharmacokinetics of SC ZA co-administered with rHuPH20
# Type: in vivo, human
# Condition info: human, serum, sc, ZA 1 mg SC + 24000 U rHuPH20; median, n=3; read-out: Tmax
Property measured: Tmax
Quick note: number first, unit second.

INPUT: Can you look up the measured Tmax of O=P(O)(O)C(O)(Cn1ccnc1)P(=O)(O)O [ZA] for me?
OUTPUT: 1.06 h
